tested_system: PI3-kinase p110-delta/p85-alpha (Homo sapiens, UniProt O00329)
Sequence (P27986 whole entry): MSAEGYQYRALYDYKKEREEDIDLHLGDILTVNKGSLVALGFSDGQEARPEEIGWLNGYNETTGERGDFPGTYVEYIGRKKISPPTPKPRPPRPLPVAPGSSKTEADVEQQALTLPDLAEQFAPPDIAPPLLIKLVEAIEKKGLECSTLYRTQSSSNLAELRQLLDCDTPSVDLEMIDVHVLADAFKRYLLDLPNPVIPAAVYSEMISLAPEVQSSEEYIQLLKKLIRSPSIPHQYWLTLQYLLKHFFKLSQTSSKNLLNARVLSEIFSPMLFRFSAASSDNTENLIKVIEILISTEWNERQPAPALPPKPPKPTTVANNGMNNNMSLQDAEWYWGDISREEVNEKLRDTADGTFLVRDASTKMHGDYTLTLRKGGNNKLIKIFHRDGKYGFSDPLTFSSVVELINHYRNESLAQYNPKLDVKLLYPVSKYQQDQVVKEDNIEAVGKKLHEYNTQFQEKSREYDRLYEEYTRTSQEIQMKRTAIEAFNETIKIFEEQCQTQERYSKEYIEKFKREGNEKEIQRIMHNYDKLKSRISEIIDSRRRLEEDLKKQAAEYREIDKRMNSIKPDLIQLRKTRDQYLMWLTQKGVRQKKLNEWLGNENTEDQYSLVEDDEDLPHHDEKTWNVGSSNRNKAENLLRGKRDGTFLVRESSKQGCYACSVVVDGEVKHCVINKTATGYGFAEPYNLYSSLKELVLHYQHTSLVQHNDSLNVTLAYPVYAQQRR
Sequence (O00329 whole entry): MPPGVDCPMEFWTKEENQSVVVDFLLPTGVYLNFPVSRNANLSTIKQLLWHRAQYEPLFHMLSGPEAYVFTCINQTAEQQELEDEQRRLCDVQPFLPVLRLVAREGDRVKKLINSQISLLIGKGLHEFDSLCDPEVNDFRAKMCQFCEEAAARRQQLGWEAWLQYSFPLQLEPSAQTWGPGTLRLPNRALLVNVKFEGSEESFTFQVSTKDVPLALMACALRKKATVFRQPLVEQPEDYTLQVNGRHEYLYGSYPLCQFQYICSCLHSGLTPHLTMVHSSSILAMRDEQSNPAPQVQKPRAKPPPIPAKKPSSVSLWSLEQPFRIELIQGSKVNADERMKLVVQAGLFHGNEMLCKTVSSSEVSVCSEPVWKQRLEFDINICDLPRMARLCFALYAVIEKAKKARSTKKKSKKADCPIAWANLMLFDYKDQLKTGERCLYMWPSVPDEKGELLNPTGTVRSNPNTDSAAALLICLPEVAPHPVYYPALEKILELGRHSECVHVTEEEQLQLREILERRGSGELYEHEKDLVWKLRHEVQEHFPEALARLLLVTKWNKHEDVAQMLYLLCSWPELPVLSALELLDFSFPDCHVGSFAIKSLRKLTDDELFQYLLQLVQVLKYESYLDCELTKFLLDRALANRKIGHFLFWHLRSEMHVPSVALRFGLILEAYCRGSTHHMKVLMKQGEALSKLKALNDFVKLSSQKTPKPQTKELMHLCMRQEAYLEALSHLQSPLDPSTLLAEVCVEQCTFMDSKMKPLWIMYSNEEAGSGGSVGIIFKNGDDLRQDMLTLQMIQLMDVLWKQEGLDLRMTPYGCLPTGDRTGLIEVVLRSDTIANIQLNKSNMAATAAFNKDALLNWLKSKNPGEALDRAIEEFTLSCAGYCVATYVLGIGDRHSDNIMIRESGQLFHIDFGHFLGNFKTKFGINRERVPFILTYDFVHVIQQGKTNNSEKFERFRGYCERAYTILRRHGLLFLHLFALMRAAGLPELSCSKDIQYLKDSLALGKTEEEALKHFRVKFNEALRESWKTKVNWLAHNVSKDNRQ
experiment_description: Inhibition of recombinant human full length N-terminal His6-tagged PI3K p110delta/p85alpha expressed in baculovirus infected Sf21 cells using PIP2 as substrate after 35 to 40 mins by HTRF assay
pIC50: −log10 of the molar value.
Label 1 (yes) when pIC50 >= 8; otherwise 0 (no).

Worked examples, 6 compounds total:
>  <compound>
COc1ncc(-c2cc(OC[C@@H]3CCCN(C(=O)C4CCOCC4)C3)c3cnn(C)c3n2)cc1NS(C)(=O)=O

>  <label>
1 (yes)

$$$$
>  <compound>
COc1ncc(-c2cc(OC[C@@H]3CCCN(CCC4CCOCC4)C3)c3cnn(C)c3n2)cc1NS(C)(=O)=O

>  <label>
1 (yes)

$$$$
>  <compound>
COc1ncc(-c2cc(OC[C@@H]3CCCN(C(=O)C4CCN(CCC(F)(F)F)CC4)C3)c3cnn(C)c3n2)cc1NS(C)(=O)=O

>  <label>
0 (no)

$$$$
>  <compound>
COc1ncc(-c2cc(OC[C@@H]3CCCN(Cc4cn(C)nc4C)C3)c3cnn(C)c3n2)cc1NS(C)(=O)=O

>  <label>
1 (yes)

$$$$
>  <compound>
COc1ncc(-c2cc(OC[C@@H]3CCCN(CC4(C)COC4)C3)c3cnn(C)c3n2)cc1NS(C)(=O)=O

>  <label>
1 (yes)

$$$$
>  <compound>
COc1ncc(-c2cc(O[C@H]3CC[C@H](NC(=O)C4CCOCC4)CC3)c3cnn(C)c3n2)cc1NS(C)(=O)=O

>  <label>
0 (no)

$$$$

Continue with the next compound.
QUERY: # check: pIC50 of COc1ncc(-c2cc(OC[C@@H]3CCCN(C(=O)C4CCN(C(C)=O)CC4)C3)c3cnn(C)c3n2)cc1NS(C)(=O)=O is greater than or equal to 8
RESULT: 1 (yes)

Entry source: ChEMBL document CHEMBL4229407
